meta.source: patent US20230063457A1

Recorded measurements of pIC50, one per entry
molecular target: Phospho-DNA-PK in FaDu Cells (Homo sapiens, UniProt P78527); construct: host or cells: FaDu; experiment: Effect of compounds on phospho-DNA-PK in FaDu cells (MesoScale sandwich immunoassay); format: cell-based; details: 1 hour pre-incubation, 1 μg/ml Neocarzinostatin 2 hours, averaged values, read-out: MSD FaDu IC50
FYI, pIC50 means -log10 of a concentration in mol per litre.

c1cnc(NCc2cnn(-c3nc(N4CCOCC4)cc4ncccc34)c2)nc1
5.03
c1cnc2cc(N3CCOCC3)nc(NCC3CCN(c4nnc[nH]4)CC3)c2c1
5.24
c1cnc2cc(N3CCOCC3)nc(O[C@H]3CC[C@@H](n4cncn4)CC3)c2c1
6.62
COC(=O)c1cc(N)nc(NCC2CCN(c3nc(N4CCOCC4)cc4ncccc34)CC2)n1
5.63

Consider the additional compound presented here.
Ask: Fill blank: measured pIC50 of the compound c1cnc(N2CCC3(CCN(c4nc(N5CCOCC5)cc5ncccc45)C3)C2)nc1 (centres unmarked) is ____.
Result: 5.81
